molecular target: Xanthine dehydrogenase/oxidase (Homo sapiens, UniProt P47989)
Sequence (P47989 whole entry): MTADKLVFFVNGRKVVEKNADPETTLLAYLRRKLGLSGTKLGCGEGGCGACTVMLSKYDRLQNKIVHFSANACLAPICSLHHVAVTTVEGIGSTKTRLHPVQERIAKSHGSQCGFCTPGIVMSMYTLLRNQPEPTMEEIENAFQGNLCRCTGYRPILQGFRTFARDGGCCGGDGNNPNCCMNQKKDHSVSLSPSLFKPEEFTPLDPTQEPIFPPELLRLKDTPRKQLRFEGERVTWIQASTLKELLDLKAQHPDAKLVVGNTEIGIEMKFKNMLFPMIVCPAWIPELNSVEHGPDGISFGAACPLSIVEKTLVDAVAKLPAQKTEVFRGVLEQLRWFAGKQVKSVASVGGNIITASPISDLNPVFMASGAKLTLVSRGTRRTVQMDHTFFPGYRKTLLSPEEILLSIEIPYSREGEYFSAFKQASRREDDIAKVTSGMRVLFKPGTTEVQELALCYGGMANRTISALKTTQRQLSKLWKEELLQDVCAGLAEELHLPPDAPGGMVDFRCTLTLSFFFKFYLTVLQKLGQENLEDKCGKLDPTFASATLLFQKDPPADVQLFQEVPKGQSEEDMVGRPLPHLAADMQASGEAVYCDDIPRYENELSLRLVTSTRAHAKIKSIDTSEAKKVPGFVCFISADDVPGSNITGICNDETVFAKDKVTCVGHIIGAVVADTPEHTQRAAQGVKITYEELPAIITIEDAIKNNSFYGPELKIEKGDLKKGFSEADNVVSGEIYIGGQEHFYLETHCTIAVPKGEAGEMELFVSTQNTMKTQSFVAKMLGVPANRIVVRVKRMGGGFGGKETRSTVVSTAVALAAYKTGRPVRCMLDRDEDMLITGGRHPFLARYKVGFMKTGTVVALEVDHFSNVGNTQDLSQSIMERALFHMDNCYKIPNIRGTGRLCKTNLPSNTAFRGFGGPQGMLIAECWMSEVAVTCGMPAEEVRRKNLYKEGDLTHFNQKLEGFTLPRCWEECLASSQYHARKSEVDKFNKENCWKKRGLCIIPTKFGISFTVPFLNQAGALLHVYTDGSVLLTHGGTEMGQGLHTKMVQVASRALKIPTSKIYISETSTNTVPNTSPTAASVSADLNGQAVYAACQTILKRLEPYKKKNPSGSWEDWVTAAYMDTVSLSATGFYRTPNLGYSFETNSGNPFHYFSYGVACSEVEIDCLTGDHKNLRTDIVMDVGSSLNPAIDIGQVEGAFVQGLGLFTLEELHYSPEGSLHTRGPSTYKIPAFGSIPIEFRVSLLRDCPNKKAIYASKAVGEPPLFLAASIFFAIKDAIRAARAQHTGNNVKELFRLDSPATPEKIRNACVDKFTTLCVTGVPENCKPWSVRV
Could you please report measured pIC50 for the items listed next?
Please note pIC50 is a logarithmic value: minus log10 of concentration in mol/L. Answer with that number alone.

Report pIC50 for `CCOc1ccc(NC(=O)c2ccc(-c3nnn[nH]3)cc2)cc1` please.
7.53

Report pIC50 for `O=C(Nc1ccc(Cl)cc1)c1ccc(-c2nnn[nH]2)cc1` please.
7.58

Report pIC50 for `CC(C)(C)c1ccc(-c2ccc(-c3nnn[nH]3)cc2)cc1` please.
5.37

Report pIC50 for `COc1ccccc1-c1ccc(-c2nnn[nH]2)cc1` please.
5.77

Report pIC50 for `CC(=O)c1ccc(-c2ccc(-c3nnn[nH]3)cc2)cc1` please.
6.74

Report pIC50 for `O=C(O)c1ccc(-c2ccc(-c3nnn[nH]3)cc2)cc1Cl` please.
6.39

Report pIC50 for `O=Cc1ccccc1-c1ccc(-c2nnn[nH]2)cc1` please.
6.31

Report pIC50 for Cc1nc(-c2ccc(OCC(C)C)c(C#N)c2)sc1C(=O)O [FEBUXOSTAT] please.
8.16

Report pIC50 for `CCCOc1ccc(NC(=O)c2ccc(-c3nnn[nH]3)cc2)cc1` please.
6.80

Report pIC50 for `COc1ccc(-c2ccc(-c3nnn[nH]3)cc2)cc1` please.
5.86

Report pIC50 for `COc1ccc(NC(=O)c2ccc(-c3nnn[nH]3)cc2)cc1` please.
7.40

Report pIC50 for `O=C(O)c1cc(-c2ccc(-c3nnn[nH]3)cc2)ccc1Cl` please.
6.14

Data credit: ChEMBL document CHEMBL5352454
